Relative cAMP EC50 for assorted binders
target: hGLP-1R (Homo sapiens, UniProt P43220)
Sequence (P43220 24-463): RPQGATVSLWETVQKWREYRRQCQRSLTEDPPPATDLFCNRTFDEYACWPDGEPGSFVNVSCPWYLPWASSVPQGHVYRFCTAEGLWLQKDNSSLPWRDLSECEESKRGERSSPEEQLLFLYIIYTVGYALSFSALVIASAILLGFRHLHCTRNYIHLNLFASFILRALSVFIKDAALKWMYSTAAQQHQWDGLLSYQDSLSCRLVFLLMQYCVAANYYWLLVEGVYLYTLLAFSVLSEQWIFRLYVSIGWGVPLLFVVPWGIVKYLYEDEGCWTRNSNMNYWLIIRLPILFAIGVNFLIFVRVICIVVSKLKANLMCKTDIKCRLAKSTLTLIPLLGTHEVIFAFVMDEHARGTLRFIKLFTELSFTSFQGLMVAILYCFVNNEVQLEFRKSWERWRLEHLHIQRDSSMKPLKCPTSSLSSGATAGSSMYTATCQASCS
test details: cell-based or functional assay
experimental endpoint: Relative cAMP EC50 (nM)

>  <binder>
YXQGTXTSDXSIXLDXKAQXXFIEXLLEGGPSSXEPPPE (synthetic construct; SITE 2: note = 2-Aminoisobutyric Acid; SITE 6: note = alpha-methyl-2-fluoro-L-phenylalanine; SITE 10: note = 3-(4-Pyridyl)-L-alanine; SITE 13: note = alpha-methyl-leucine; SITE 16: note = L-ornithine; SITE 17: note = Lysine is chemically modified through conjugation of the epsil) [Example 373]

>  <quantitative readout>
0.392

$$$$
>  <binder>
YXQGTFTSDFSKXLDKKAQXAFIEYLIEXGESSGAPPPSGS (Aib, αMeL; K acylated AEEA-γGlu-C18 diacid; C-amide; synthetic construct; SITE 2: note = 2-Aminoisobutyric Acid; SITE 13: note = alpha-methyl-leucine; SITE 17: note = Lysine is chemically modified through conjugation of the epsilon-amino group of the Lysine side chain with (2-[2-(2-Amino-ethoxy)-ethoxy]-acetyl)-(gamma-Glu)-CO-(CH2) 16-CO2H; SITE 20: n) [Example 216]

>  <quantitative readout>
0.52

$$$$
>  <binder>
YXQGTFTSDFSXXLDXKAQXAFIEYLLEGGPSSGAPPPGGSEE (non-natural residues (Aib, Orn, αMeL); lipidated Lys; C-terminal amide; synthetic construct; SITE 2: note = 2-Aminoisobutyric Acid; SITE 12: note = L-ornithine; SITE 13: note = alpha-methyl-leucine; SITE 16: note = L-ornithine; SITE 17: note = Lysine is chemically modified through conjugation of the epsilon-amino group of the Lysine side chain with (gamma-Glu)2-CO-(CH2)) [Example 1048]

>  <quantitative readout>
6.23

$$$$
>  <binder>
YXQGTXTSDYSIXLDKKAQXAFIEYLEEGGPSSGAPPPS (synthetic construct; SITE 2: note = 2-Aminoisobutyric Acid; SITE 6: note = alpha-methyl-2-fluoro-L-phenylalanine; SITE 13: note = alpha-methyl-leucine; SITE 17: note = Lysine is chemically modified through conjugation of the epsilon-amino group of the Lysine side chain with (2-[2-(2-Amino-ethoxy)-et)) [Example 421]

>  <quantitative readout>
0.21

$$$$
